Tested on: Staphylococcus aureus ATCC 25923
A collection of compounds and their measured MIC
Numeric only. Scale: µM

Use the examples below as a reference point.
CC[C@H](C)[C@H](NC(=O)[C@@H](NC(=O)[C@H](CCCCN)NC(=O)CNC(=O)[C@H](CC(C)C)NC(=O)[C@@H](NC(=O)[C@@H]1CCCN1C(=O)[C@H](CC(C)C)NC(=O)[C@@H](N)Cc1ccccc1)C(C)C)C(C)C)C(=O)N[C@@H](CCCCN)C(=O)N[C@@H](CC(C)C)C(=O)N[C@H](C(=O)NCC(=O)NCC(=O)N[C@@H](CC(C)C)C(=O)N[C@@H](CC(C)C)C(N)=O)C(C)C
3.1
C[C@H](NC(=O)[C@H](CCCN=C(N)N)NC(=O)[C@H](Cc1c[nH]c2ccccc12)NC(=O)[C@H](CCCN=C(N)N)NC(=O)[C@H](Cc1c[nH]c2ccccc12)NC(=O)[C@H](Cc1c[nH]c2ccccc12)NC(=O)[C@H](Cc1c[nH]c2ccccc12)NC(=O)[C@H](CCCN=C(N)N)NC(=O)[C@H](Cc1c[nH]c2ccccc12)NC(=O)[C@H](CCCN=C(N)N)NC(=O)[C@@H](N)CO)C(N)=O
1

Query: State its MIC: `CC[C@H](C)[C@H](NC(=O)[C@H](CCCN=C(N)N)NC(=O)[C@H](Cc1c[nH]c2ccccc12)NC(=O)[C@@H](NC(=O)[C@@H](NC(=O)[C@H](CC(C)C)NC(=O)[C@H](Cc1c[nH]c2ccccc12)NC(=O)[C@H](CCCN=C(N)N)NC(=O)[C@H](CCC(N)=O)NC(=O)[C@@H](N)C(C)C)[C@@H](C)CC)C(C)C)C(=O)N[C@@H](CCCN=C(N)N)C(=O)N[C@@H](CCCCN)C(N)=O`
Result: 77.4

Query: State its MIC: `CC[C@H](C)[C@H](NC(=O)[C@H](CCCN=C(N)N)NC(=O)[C@H](C)NC(=O)[C@H](C)N)C(=O)N[C@H](C(=O)N[C@@H](CC(C)C)C(=O)N[C@@H](CCCN=C(N)N)C(=O)N[C@@H](Cc1c[nH]c2ccccc12)C(=O)N[C@@H](Cc1ccccc1)C(=O)N[C@@H](CCCN=C(N)N)C(=O)N[C@@H](CCCN=C(N)N)C(N)=O)[C@@H](C)CC`
Result: 8

Query: State its MIC: `CC(C)C[C@H](NC(=O)[C@H](Cc1c[nH]c2ccccc12)NC(=O)[C@H](CCCN=C(N)N)NC(=O)[C@H](Cc1c[nH]c2ccccc12)NC(=O)[C@H](Cc1c[nH]c2ccccc12)NC(=O)[C@H](CCCCN)NC(=O)[C@H](CCCCN)NC(=O)[C@H](Cc1c[nH]c2ccccc12)NC(=O)[C@@H](N)CCCN=C(N)N)C(=O)O`
Result: 2.77

Query: State its MIC: `CC(C)[C@H](NC(=O)[C@H](Cc1cnc[nH]1)NC(=O)[C@H](C)NC(=O)[C@H](C)NC(=O)[C@H](CCCCN)NC(=O)[C@H](CCCCN)NC(=O)[C@H](Cc1ccccc1)NC(=O)[C@H](Cc1ccccc1)NC(=O)[C@H](CO)NC(=O)CNC(=O)[C@H](Cc1c[nH]c2ccccc12)NC(=O)CN)C(=O)NCC(=O)N[C@@H](CCCCN)C(=O)N[C@@H](Cc1cnc[nH]1)C(=O)N[C@H](C(=O)NCC(=O)N[C@@H](CCCCN)C(=O)N[C@@H](C)C(N)=O)C(C)C`
Result: 20

* * *

Test system: Bacillus subtilis
A collection of compounds and their measured MIC
Numeric only. Scale: µM

CC(C)C[C@H](NC(=O)[C@H](CC(C)C)NC(=O)[C@H](CCCN=C(N)N)NC(=O)[C@H](Cc1cnc[nH]1)NC(=O)[C@@H](NC(=O)[C@H](CCCN=C(N)N)NC(=O)CNC(=O)[C@@H](NC(=O)[C@@H]1CCCN1)C(C)C)C(C)C)C(=O)N[C@@H](CCCN=C(N)N)C(=O)N[C@@H](CCCCN)C(=O)O [PVGRVHRLLRK]
24

Query: State its MIC: CC[C@H](C)[C@H](NC(=O)[C@H](CCCN=C(N)N)NC(=O)[C@@H](NC(=O)[C@@H](NC(=O)[C@@H](NC(=O)CN)C(C)C)C(C)C)C(C)C)C(=O)NCC(=O)N[C@@H](CCCN=C(N)N)C(=O)N[C@H](C(=O)N[C@H](C(=O)N[C@H](C(=O)N[C@@H](CCCN=C(N)N)C(=O)NCC(=O)N[C@H](C(=O)N[C@@H](CCCN=C(N)N)C(=O)N[C@@H](CCCN=C(N)N)C(N)=O)C(C)C)C(C)C)[C@@H](C)CC)C(C)C [GVVVRIGRVIVRGVRR]
Result: 4

Query: State its MIC: CC[C@H](C)[C@H](NC(=O)CN)C(=O)N[C@@H](Cc1ccccc1)C(=O)NCC(=O)N[C@@H](CCCCN)C(=O)N[C@H](C(=O)N[C@@H](CC(C)C)C(=O)NCC(=O)N[C@H](C(=O)NCC(=O)N[C@@H](CCCCN)C(=O)N[C@@H](CCCCN)C(=O)N[C@H](C(=O)N[C@@H](CC(C)C)C(=O)N[C@H]1CSSC[C@@H](C(=O)O)NC(=O)[C@H](C(C)C)NC(=O)CNC(=O)[C@H](CO)NC(=O)[C@H](CC(C)C)NC(=O)CNC1=O)C(C)C)C(C)C)[C@@H](C)CC [GIFGKILGVGKKVLCGLSGVC]
Result: 2.88

Query: State its MIC: CC[C@H](C)[C@H](NC(=O)[C@@H](N)CCCCN)C(=O)N[C@@H](C)C(=O)N[C@@H](CCCCN)C(=O)N[C@H](C(=O)N[C@@H](C)C(=O)N[C@@H](CC(C)C)C(=O)N[C@@H](CCCCN)C(=O)N[C@@H](C)C(=O)N[C@@H](CC(C)C)C(N)=O)C(C)C [KIAKVALKAL]
Result: 13.7

* * *

System: Salmonella enterica subsp. enterica serovar Typhimurium C77-31
Result type: MIC

CC[C@H](C)[C@H](NC(=O)[C@H](CCCCN)NC(=O)[C@H](CCCN=C(N)N)NC(=O)[C@H](CC(C)C)NC(=O)[C@H](Cc1ccccc1)NC(=O)[C@H](CCCN=C(N)N)NC(=O)CNC(=O)[C@H](Cc1ccccc1)NC(=O)[C@@H](N)CCCN=C(N)N)C(=O)N[C@@H](CCCN=C(N)N)C(=O)N[C@@H](CCCN=C(N)N)C(=O)N[C@@H](Cc1ccccc1)C(=O)N[C@@H](CCCN=C(N)N)C(=O)N1CCC[C@H]1C(=O)N[C@@H](CCCCN)C(N)=O
≥ 32 µM

Let us examine a further case.
Query: Specify MIC for `CC[C@H](C)[C@H](N)C(=O)N[C@@H](CCCCN)C(=O)N1CCC[C@H]1C(=O)N[C@H](C(=O)N[C@H](C(=O)N[C@@H](CCCCN)C(=O)N1CCC[C@H]1C(=O)N[C@H](C(=O)N[C@H](C(=O)N[C@@H](CCCCN)C(=O)N1CCC[C@H]1C(=O)N[C@H](C(=O)N[C@H](C(=O)N[C@@H](CCCCN)C(=O)N1CCC[C@H]1C(=O)N[C@H](C(N)=O)[C@@H](C)CC)[C@@H](C)CC)[C@@H](C)CC)[C@@H](C)CC)[C@@H](C)CC)[C@@H](C)CC)[C@@H](C)CC` , system Salmonella enterica subsp. enterica serovar Typhimurium C77-31.
Result: ≥ 64 µM

* * *

Candida parapsilosis ATCC 22019: reported MIC for various molecules.
Numeric only. Scale: µM

CC[C@H](C)[C@H](NC(=O)CN)C(=O)N[C@@H](Cc1ccccc1)C(=O)N[C@@H](CC(=O)O)C(=O)N[C@H](C(=O)N[C@@H](CC(C)C)C(=O)N[C@@H](CCCCN)C(=O)N[C@@H](CC(N)=O)C(=O)N[C@@H](CC(C)C)C(=O)N[C@@H](C)C(=O)N[C@@H](CCCCN)C(=O)NCC(=O)N[C@H](C(=O)N[C@H](C(=O)N[C@H](C(=O)N[C@@H](CO)C(=O)N[C@@H](CC(C)C)C(=O)N[C@@H](C)C(=O)N[C@@H](CO)C(N)=O)[C@@H](C)O)[C@@H](C)CC)C(C)C)C(C)C
25

Let us examine a further case.
Query: Specify MIC for `CC[C@H](C)[C@H](N)C(=O)N[C@@H](CC(N)=O)C(=O)N[C@@H](CC(C)C)C(=O)N[C@@H](CCCCN)C(=O)N[C@@H](C)C(=O)N[C@H](C(=O)N[C@@H](C)C(=O)N[C@@H](C)C(=O)N[C@@H](CC(C)C)C(=O)N[C@@H](C)C(=O)N[C@@H](CCCCN)C(=O)N[C@@H](CCCCN)C(=O)N[C@@H](CC(C)C)C(=O)N[C@@H](CC(C)C)C(=O)O)[C@@H](C)CC` , system Candida parapsilosis ATCC 22019.
Result: 27
